Target: Glycogen synthase kinase-3 alpha (Homo sapiens);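 also: values are mean inhibition of GSK3A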
Settings: at 0.1 µM
Measured inhibition accompanies every entry in the list below.
recorded.endpoint: inhibition (%)

structure_notation=N#Cc1ccc2c(-c3ccnc(NC4CC4)n3)c(-c3ccc(F)cc3)nn2c1 assayed_target="Glycogen synthase kinase-3 alpha (Homo sapiens)" recorded_endpoint=inhibition display_unit=% experimental_value=5.27
structure_notation=CN1CCC(n2cnc(-c3ccc(F)cc3)c2-c2ccnc(NCCO)n2)CC1 assayed_target="Glycogen synthase kinase-3 alpha (Homo sapiens)" recorded_endpoint=inhibition display_unit=% experimental_value=3.17
structure_notation=CC1(C)CC(n2cnc(-c3ccc(F)cc3)c2-c2ccnc(N)n2)CC(C)(C)N1 assayed_target="Glycogen synthase kinase-3 alpha (Homo sapiens)" recorded_endpoint=inhibition display_unit=% experimental_value=1.97
